target: T1, hPD-1 Avi-Tag Biotin (AcroBiosystems PD1-H82E4) (human, UniProt Q15116 25-167, biotin on Avi-Tag); test: SPR, Ab captured, PD-1 analyte
T1 construct: bought; also called human PD-1
T1 sequence (Q15116 25-167 limits assumed): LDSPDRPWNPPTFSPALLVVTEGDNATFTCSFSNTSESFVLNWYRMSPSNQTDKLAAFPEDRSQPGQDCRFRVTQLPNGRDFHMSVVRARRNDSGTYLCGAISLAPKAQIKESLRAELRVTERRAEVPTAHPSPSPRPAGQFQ
Answer each item with its documented pKd.
Kindly note that pKd refers to -log10 of the concentration in mol/L and answer with the value alone.

Q: Please look up its pKd: z5-XVT458 (antibody, human IgG1, kappa, V domains shown, hIgG1; numbering as for z1; also called GH + V067A + T073K) VH: QVQLVQSGAEVKKPGASVKVSCKASGYTFTNFYIHWVRQAPGQGLEWMGSIYPNYGDTAYNQKFKDRATMTTDKSTSTAYMELRSLRSDDTAVYYCARGYSYAMDYWGQGTTVTVSS VL: DIQMTQSPSSVSASVGDRVTITCSASQGISGDLNWYQQKPGKAPKLLIYHTSSLHSGVPSRFSGSGSGTDFTLTISSLQPEDFATYYCQYYSKDLLTFGGGTKLEIKR
Result: 7.80

Q: Now consider z4-XVT458 (antibody, human IgG1, kappa, V domains shown, hIgG1; numbering as for z1; also called GH + V067A + T071V) VH: QVQLVQSGAEVKKPGASVKVSCKASGYTFTNFYIHWVRQAPGQGLEWMGSIYPNYGDTAYNQKFKDRATMTVDTSTSTAYMELRSLRSDDTAVYYCARGYSYAMDYWGQGTTVTVSS VL: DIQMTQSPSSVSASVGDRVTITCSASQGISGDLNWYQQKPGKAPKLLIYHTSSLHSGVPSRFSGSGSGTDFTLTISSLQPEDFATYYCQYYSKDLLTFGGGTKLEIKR .
Result: 7.88

Q: Now consider z7-XVT458 (antibody, human IgG1, kappa, V domains shown, hIgG1; numbering as for z1; also called GH + V067A + T071V + T073K) VH: QVQLVQSGAEVKKPGASVKVSCKASGYTFTNFYIHWVRQAPGQGLEWMGSIYPNYGDTAYNQKFKDRATMTVDKSTSTAYMELRSLRSDDTAVYYCARGYSYAMDYWGQGTTVTVSS VL: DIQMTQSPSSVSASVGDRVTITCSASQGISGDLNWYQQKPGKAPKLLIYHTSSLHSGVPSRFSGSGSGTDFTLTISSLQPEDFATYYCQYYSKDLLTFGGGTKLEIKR .
Result: 7.84

Q: Now consider z6-XVT458 (antibody, human IgG1, kappa, V domains shown, hIgG1; numbering as for z1; also called GH + T071V + T073K) VH: QVQLVQSGAEVKKPGASVKVSCKASGYTFTNFYIHWVRQAPGQGLEWMGSIYPNYGDTAYNQKFKDRVTMTVDKSTSTAYMELRSLRSDDTAVYYCARGYSYAMDYWGQGTTVTVSS VL: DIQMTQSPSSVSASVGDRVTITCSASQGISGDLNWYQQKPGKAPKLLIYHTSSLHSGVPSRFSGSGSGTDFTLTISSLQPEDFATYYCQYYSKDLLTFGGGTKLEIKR .
Result: 7.84
